The origin of these recorded values is ChEMBL document CHEMBL2203191.

So I've got a bunch of compounds here, and I need their pKi values.
experiment: Displacement of [125I]Angiotensin-2 from angiotensin AT1 receptor in Sprague-Dawley rat VSMC after 60 mins by gamma counting
Bear in mind: pKi is minus log10 of a mol/L concentration; give just that figure.

Exercise: Give the reported value of pKi for this record: CCCCc1nc(Cl)c(CO)n1Cc1ccc(-c2ccccc2-c2nnn[nH]2)cc1
Solution: 8.85

Exercise: Output pKi of CCCCc1nc(Cl)c(C(=O)O)n1Cc1ccc(-c2ccc(F)cc2C(=O)O)cc1
Solution: 7.75

Exercise: Please report pKi for the following compound: CCCCC1=NC2(CCCC2)C(=O)N1Cc1ccc(-c2ccccc2-c2nnn[nH]2)cc1
Solution: 8.56

Exercise: Supply recorded pKi for CCCC(=O)N(Cc1ccc(-c2ccc(F)cc2C(=O)O)cc1)[C@H](C(=O)O)C(C)C here.
Solution: 9.38

Exercise: Report measured pKi; entry is CCCCc1nc(Cl)c(C(=O)O)n1Cc1ccc(-c2cc(F)c(F)cc2C(=O)O)cc1
Solution: 8.04

Exercise: Dear colleague, please send me the reported pKi for CCCCc1nc(Cl)c(CO)n1Cc1ccc(-c2ccc(F)cc2C(=O)O)cc1 when you can.
Solution: 8.42

Exercise: Return value of pKi for input CCCCc1nc(Cl)c(C(=O)O)n1Cc1ccc(-c2cc(F)ccc2C(=O)O)cc1 , no commentary.
Solution: 8.04

Exercise: Give the reported value of pKi for this record: CCCCC1=NC2(CCCC2)C(=O)N1Cc1ccc(-c2ccc(F)cc2C(=O)O)cc1
Solution: 8.17

Exercise: Please report the measured pKi for CCCCC(=O)N(Cc1ccc(-c2ccccc2-c2nnn[nH]2)cc1)[C@H](C(=O)O)C(C)C
Solution: 8.68

###

assay: Displacement of [125I]Angiotensin-2 from angiotensin AT1 receptor in Sprague-Dawley rat VSMC after 60 mins by gamma counting
experimentalReadout: pIC50
Schema: pIC50 number; meaning minus log10 of the concentration expressed in molar units.

Exercise: Give recorded pIC50. CCCC(=O)N(Cc1ccc(-c2ccc(F)cc2C(=O)O)cc1)[C@H](C(=O)O)C(C)C
Solution: 9.23

Exercise: Look up pIC50 of CCCCc1nc(Cl)c(C(=O)O)n1Cc1ccc(-c2ccc(F)cc2C(=O)O)cc1 and report it.
Solution: 7.58

Exercise: Give the reported value of pIC50 for this record: CCCCc1nc(Cl)c(C(=O)O)n1Cc1ccc(-c2cc(F)ccc2C(=O)O)cc1
Solution: 7.87

Exercise: // fetch pIC50 given entry CCCCc1nc(Cl)c(CO)n1Cc1ccc(-c2ccc(F)cc2C(=O)O)cc1
Solution: 8.39

Exercise: Check the records and state pIC50 for CCCCC1=NC2(CCCC2)C(=O)N1Cc1ccc(-c2ccccc2-c2nnn[nH]2)cc1
Solution: 8.51

Exercise: Please give the documented pIC50 of CCCCC1=NC2(CCCC2)C(=O)N1Cc1ccc(-c2ccc(F)cc2C(=O)O)cc1
Solution: 8.00

Exercise: Assign pIC50 to the following record: CCCCC(=O)N(Cc1ccc(-c2ccccc2-c2nnn[nH]2)cc1)[C@H](C(=O)O)C(C)C
Solution: 8.58

Exercise: Return value of pIC50 for input CCCCc1nc(Cl)c(CO)n1Cc1ccc(-c2ccccc2-c2nnn[nH]2)cc1 , no commentary.
Solution: 8.79

Exercise: // fetch pIC50 given entry CCCCc1nc(Cl)c(C(=O)O)n1Cc1ccc(-c2cc(F)c(F)cc2C(=O)O)cc1
Solution: 7.87

###

tested on: Rattus norvegicus; test: Antihypertensive activity in SHR rat assessed as decrease in mean arterial pressure at 10 mg/kg, po; assay type: functional, Artery
experimentalReadout: Activity

Exercise: Supply Activity measured with Rattus norvegicus for CCCCC(=O)N(Cc1ccc(-c2ccccc2-c2nnn[nH]2)cc1)[C@H](C(=O)O)C(C)C .
Solution: 28 mmHg

Exercise: Print Rattus norvegicus Activity for CCCCc1nc(Cl)c(CO)n1Cc1ccc(-c2ccccc2-c2nnn[nH]2)cc1 .
Solution: 27 mmHg

Exercise: Under Rattus norvegicus, report Activity for CCCC(=O)N(Cc1ccc(-c2ccc(F)cc2C(=O)O)cc1)[C@H](C(=O)O)C(C)C
Solution: 42 mmHg

Exercise: Answer briefly: Activity recorded on Rattus norvegicus for CCCCc1nc(Cl)c(CO)n1Cc1ccc(-c2ccc(F)cc2C(=O)O)cc1
Solution: 25 mmHg

###

species: Rattus norvegicus; test: Displacement of [125I]Angiotensin-2 from angiotensin AT1 receptor in Sprague-Dawley rat VSMC after 60 mins by gamma counting
experimentalReadout: inhibition

// worked examples, inhibition included
molecule: CCCC(=O)N(Cc1ccc(-c2ccc(F)cc2C(=O)O)cc1)[C@H](C(=O)O)C(C)C
experimentalReadout: inhibition
result: Dose-dependent effect
//
molecule: CCCCC1=NC2(CCCC2)C(=O)N1Cc1ccc(-c2ccc(F)cc2C(=O)O)cc1
experimentalReadout: inhibition
result: Dose-dependent effect
//
molecule: CCCCc1nc(Cl)c(CO)n1Cc1ccc(-c2ccccc2-c2nnn[nH]2)cc1
experimentalReadout: inhibition
result: Dose-dependent effect
//
molecule: CCCCc1nc(Cl)c(C(=O)O)n1Cc1ccc(-c2ccc(F)cc2C(=O)O)cc1
experimentalReadout: inhibition
result: Dose-dependent effect
//
molecule: CCCCC1=NC2(CCCC2)C(=O)N1Cc1ccc(-c2ccccc2-c2nnn[nH]2)cc1
experimentalReadout: inhibition
result: Dose-dependent effect

Exercise: Using the record for CCCCc1nc(Cl)c(CO)n1Cc1ccc(-c2ccc(F)cc2C(=O)O)cc1 , state its measured inhibition.
Solution: Dose-dependent effect

Exercise: Given the compound CCCCc1nc(Cl)c(C(=O)O)n1Cc1ccc(-c2cc(F)ccc2C(=O)O)cc1 , write its reported inhibition.
Solution: Dose-dependent effect

Exercise: Report inhibition for CCCCc1nc(Cl)c(C(=O)O)n1Cc1ccc(-c2cc(F)c(F)cc2C(=O)O)cc1
Solution: Dose-dependent effect

Exercise: Item CCCCC(=O)N(Cc1ccc(-c2ccccc2-c2nnn[nH]2)cc1)[C@H](C(=O)O)C(C)C : provide inhibition
Solution: Dose-dependent effect
